Molecular target: Cytochrome P450 1A2 (Homo sapiens)
Sequence (P05177 whole entry): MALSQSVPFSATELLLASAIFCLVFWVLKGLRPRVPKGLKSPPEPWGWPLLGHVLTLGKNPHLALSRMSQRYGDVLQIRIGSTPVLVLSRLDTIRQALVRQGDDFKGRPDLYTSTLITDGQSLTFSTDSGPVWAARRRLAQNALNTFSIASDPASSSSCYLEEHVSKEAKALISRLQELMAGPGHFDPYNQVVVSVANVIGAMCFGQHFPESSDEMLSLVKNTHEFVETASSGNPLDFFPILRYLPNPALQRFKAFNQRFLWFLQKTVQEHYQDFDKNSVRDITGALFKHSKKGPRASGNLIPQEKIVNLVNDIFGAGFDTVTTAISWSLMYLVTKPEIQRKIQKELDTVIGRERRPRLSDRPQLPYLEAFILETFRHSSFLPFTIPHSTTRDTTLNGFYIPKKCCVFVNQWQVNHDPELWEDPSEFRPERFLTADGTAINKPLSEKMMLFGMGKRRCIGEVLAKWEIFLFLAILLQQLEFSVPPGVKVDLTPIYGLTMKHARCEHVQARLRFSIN
reported-property: pIC50
The quantity pIC50 is defined as the negative base-10 logarithm of the molar concentration.

## Task Quick one: pIC50 of Cc1cc(NC2CCCCC2)nc(NCc2ccccc2)n1 ?
## Result 5.51

###

Test: Cytotoxicity against human NHDF after 4 days by alamar blue assay
Assay type: cell-based
Settings: NHDF cells, read-out: LC50
reported-property: CC50 at 96 h (µM)
// return numeric value only (unit: µM, not printed)

## Task Any idea what its CC50 at 96 h is? The compound is Cc1cc(NC2CCCCC2)nc(NCc2ccccc2)n1
## Result 7.5

###

Assay: Lipophilicity, log D of the compound
Format: physicochemical
Details: octanol/water
Output Fulfilled for records whose logD is lower than 2, Not fulfilled for records at or above 2.

>  <smiles>
Cc1cc(NC2CCN(Cc3ccccc3)CC2)nc(N2CCCN(C)CC2)n1

>  <group>
Fulfilled

$$$$
>  <smiles>
Cc1cc(N2CCCNCC2)nc(NC2CCN(Cc3ccccc3)CC2)n1

>  <group>
Fulfilled

$$$$
>  <smiles>
Cc1cc(Nc2ccccc2)nc(N2CCCN(C(=O)OC(C)(C)C)CC2)n1

>  <group>
Not fulfilled

$$$$
>  <smiles>
Cc1cc(Nc2ccccc2)nc(N2CCCNCC2)n1

>  <group>
Fulfilled

$$$$
>  <smiles>
Cc1cc(N2CCCN(C(=O)OC(C)(C)C)CC2)nc(NC2CCN(Cc3ccccc3)CC2)n1

>  <group>
Not fulfilled

$$$$

## Task Is logD strictly under 2 for the entry Cc1cc(N2CCCN(C)CC2)nc(NC2CCN(Cc3ccccc3)CC2)n1 ?
## Result Fulfilled

## Task Please let me know if Cc1cc(NC2CCN(Cc3ccccc3)CC2)nc(N2CCCN(C(=O)OC(C)(C)C)CC2)n1 shows logD below 2.
## Result Not fulfilled

## Task Given Cc1cc(NC2CCCCC2)nc(NCc2ccccc2)n1 , is recorded logD strictly lower than 2?
## Result Not fulfilled

## Task Report whether reported logD is lower than 2 (strictly) for Cc1cc(NC2CCN(Cc3ccccc3)CC2)nc(N2CCCNCC2)n1
## Result Fulfilled

## Task I'd appreciate it if you could check whether Cc1cc(Nc2ccccc2)nc(N2CCCN(C)CC2)n1 has logD smaller than 2.
## Result Fulfilled

###

Experiment: Cytotoxicity against human RPTEC after 4 days by alamar blue assay
Format: cell-based
Conditions: RPTEC cells, read-out: LC50
reported-property: CC50 at 96 h (µM)
Report as a plain number; the unit µM is understood.

## Task Find the recorded CC50 at 96 h belonging to Cc1cc(NC2CCCCC2)nc(NCc2ccccc2)n1 and report it.
## Result 7.5

###

Target: Voltage-gated inwardly rectifying potassium channel KCNH2 (Homo sapiens, UniProt Q12809)
Sequence (Q12809 whole entry): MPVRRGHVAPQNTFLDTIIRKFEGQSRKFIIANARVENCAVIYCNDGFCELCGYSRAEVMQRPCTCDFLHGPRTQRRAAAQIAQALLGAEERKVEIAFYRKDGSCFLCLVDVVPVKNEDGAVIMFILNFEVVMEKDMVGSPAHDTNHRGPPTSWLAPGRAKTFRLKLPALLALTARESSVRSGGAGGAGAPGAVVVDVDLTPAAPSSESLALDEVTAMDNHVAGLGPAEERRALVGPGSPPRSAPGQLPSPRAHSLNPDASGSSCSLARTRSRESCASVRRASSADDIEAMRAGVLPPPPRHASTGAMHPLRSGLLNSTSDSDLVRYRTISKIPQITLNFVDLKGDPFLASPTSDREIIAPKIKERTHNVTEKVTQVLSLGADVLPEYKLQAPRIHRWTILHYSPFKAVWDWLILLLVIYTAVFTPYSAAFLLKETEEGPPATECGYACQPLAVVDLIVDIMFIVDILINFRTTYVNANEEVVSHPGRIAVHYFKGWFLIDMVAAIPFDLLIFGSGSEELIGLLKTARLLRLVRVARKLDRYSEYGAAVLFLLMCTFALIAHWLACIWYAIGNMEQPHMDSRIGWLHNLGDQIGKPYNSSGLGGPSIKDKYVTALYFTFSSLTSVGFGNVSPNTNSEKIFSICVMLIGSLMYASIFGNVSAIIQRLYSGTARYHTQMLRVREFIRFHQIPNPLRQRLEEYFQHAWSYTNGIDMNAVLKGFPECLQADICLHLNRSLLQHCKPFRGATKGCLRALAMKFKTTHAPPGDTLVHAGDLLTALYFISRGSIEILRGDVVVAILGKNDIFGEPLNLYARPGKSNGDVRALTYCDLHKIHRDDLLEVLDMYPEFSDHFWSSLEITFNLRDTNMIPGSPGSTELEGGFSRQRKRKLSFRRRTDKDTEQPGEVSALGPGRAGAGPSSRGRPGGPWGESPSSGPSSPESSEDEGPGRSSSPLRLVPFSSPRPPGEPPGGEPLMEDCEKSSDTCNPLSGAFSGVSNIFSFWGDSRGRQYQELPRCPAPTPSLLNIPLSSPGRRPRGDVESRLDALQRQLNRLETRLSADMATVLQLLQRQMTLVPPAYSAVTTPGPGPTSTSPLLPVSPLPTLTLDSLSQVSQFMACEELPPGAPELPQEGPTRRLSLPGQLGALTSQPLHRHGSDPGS
Overview of reported IC50 across a group of compounds:
Report field: quantity (unit follows the number).

Example results:
>  <smiles>
Cc1cc(Nc2ccccc2)nc(NCc2ccc3c(c2)OCO3)n1

>  <tested-system>
Voltage-gated inwardly rectifying potassium channel KCNH2 (Homo sapiens, UniProt Q12809)

>  <IC50>
9.5 µM

$$$$
>  <smiles>
FC(F)(F)c1cc(Nc2ccncc2)nc(NCc2ccc3c(c2)OCO3)n1

>  <tested-system>
Voltage-gated inwardly rectifying potassium channel KCNH2 (Homo sapiens, UniProt Q12809)

>  <IC50>
135 µM

$$$$

The record that follows has no IC50 shown yet.
## Task Give its IC50 value. Item: FC(F)(F)c1cc(Nc2ccccc2)nc(NCc2ccccn2)n1
## Result 40.1 µM

###

Molecular target: Cytochrome P450 2D6 (Homo sapiens, UniProt P10635)
Sequence (P10635 whole entry): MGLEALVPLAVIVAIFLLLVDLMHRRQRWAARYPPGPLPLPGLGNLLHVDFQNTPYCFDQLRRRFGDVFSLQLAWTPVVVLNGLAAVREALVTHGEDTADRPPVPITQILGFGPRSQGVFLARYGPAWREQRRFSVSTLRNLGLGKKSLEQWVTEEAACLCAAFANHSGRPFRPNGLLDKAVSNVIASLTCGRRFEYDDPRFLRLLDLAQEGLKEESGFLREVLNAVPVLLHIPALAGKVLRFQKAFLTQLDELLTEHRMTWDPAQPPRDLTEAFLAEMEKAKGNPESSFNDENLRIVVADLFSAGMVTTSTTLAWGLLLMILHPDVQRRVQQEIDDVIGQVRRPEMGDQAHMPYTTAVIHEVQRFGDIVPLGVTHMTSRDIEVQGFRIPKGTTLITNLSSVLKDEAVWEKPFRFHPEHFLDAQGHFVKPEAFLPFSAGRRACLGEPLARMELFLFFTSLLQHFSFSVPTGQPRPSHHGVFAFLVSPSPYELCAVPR
reported-property: pIC50
A value of pIC50 is the negative decimal logarithm of a concentration given in moles per litre.

## Task Please look up its pIC50: Cc1cc(NC2CCCCC2)nc(NCc2ccccc2)n1
## Result 5.38

###

System: Liver microsomes
Experiment: Intrinsic clearance in human liver microsomes measured […]
Format: ADME, Microsome
reported-property: clearance

Example compounds with recorded clearance:
>  <smiles>
FC(F)(F)c1cc(Nc2ccccc2)nc(NCc2ccncc2)n1

>  <reported-property>
clearance

>  <reported>
56.2 µL/min/mg

$$$$
>  <smiles>
FC(F)(F)c1cc(Nc2ccccc2)nc(NCc2ccccn2)n1

>  <reported-property>
clearance

>  <reported>
> 99 µL/min/mg

$$$$

## Task State the recorded clearance for this entry: Cc1cc(Nc2ccccc2)nc(NCc2ccccc2)n1
## Result 55.2 µL/min/mg

## Task Param item = Cc1cc(Nc2ccccc2)nc(NCc2ccccn2)n1 ; retrieve measured clearance.
## Result 70 µL/min/mg

## Task Item Cc1cc(Nc2ccccc2)nc(NCc2ccc3c(c2)OCO3)n1 has what recorded clearance?
## Result 31.3 µL/min/mg

###

Target: Cytochrome P450 2C9 (Homo sapiens)
Sequence (P11712 whole entry): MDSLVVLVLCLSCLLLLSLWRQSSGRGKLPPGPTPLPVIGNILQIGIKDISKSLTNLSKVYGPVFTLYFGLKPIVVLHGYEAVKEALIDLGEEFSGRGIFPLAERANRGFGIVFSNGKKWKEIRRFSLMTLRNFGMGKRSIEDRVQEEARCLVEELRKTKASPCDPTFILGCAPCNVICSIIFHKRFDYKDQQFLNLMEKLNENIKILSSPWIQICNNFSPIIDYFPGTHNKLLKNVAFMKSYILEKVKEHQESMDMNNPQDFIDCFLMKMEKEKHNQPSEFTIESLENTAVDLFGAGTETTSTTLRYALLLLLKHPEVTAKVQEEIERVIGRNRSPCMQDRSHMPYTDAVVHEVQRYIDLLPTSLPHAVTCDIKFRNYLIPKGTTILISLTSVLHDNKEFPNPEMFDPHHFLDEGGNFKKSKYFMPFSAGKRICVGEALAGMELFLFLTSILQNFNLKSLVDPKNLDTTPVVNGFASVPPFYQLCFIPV
reported-property: IC50

## Task Param readout= IC50; system= Cytochrome P450 2C9 (Homo sapiens); entry= Cc1cc(NC2CCCCC2)nc(NCc2ccccc2)n1 ; returns value.
## Result > 5 µM

###

Assay: Solubility at pH 7.4
Assay type: physicochemical
Settings: buffer
reported-property: solubility (µg/mL)
Answer in µg/mL, number only, no unit symbol.

## Task Bench note: what solubility did Cc1cc(NC2CCCCC2)nc(NCc2ccccc2)n1 show?
## Result 26

###

Target: Cytochrome P450 3A4 (Homo sapiens, UniProt P08684)
Sequence (P08684 whole entry): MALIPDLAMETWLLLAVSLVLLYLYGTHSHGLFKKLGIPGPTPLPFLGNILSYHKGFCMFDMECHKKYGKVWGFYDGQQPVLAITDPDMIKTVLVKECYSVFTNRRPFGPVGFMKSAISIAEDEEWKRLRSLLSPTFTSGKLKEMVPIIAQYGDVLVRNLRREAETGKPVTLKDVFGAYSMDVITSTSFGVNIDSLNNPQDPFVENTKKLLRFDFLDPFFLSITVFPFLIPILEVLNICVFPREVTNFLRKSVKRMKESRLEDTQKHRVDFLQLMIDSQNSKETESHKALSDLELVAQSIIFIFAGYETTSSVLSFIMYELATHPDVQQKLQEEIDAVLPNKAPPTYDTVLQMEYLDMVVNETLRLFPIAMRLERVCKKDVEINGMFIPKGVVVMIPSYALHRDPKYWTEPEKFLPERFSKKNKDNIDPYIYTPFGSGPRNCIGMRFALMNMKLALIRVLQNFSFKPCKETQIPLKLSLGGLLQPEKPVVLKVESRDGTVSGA
reported-property: IC50

## Task API: value(readout=IC50, system=Cytochrome P450 3A4 (Homo sapiens, UniProt P08684)) for record Cc1cc(NC2CCCCC2)nc(NCc2ccccc2)n1
## Result > 5 µM
